System: biotinyl-Leu-oxazolone
runDescription: self-aminoacylation, catalytic enhancement (BLO) (fold over background); higher = more active; k-Seq, kA / k0A0; sequences stand for … in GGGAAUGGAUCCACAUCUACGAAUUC…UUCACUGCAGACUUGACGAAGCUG
This sample holds only a part of the variants without activity.
Would you please tag the item True when its self-aminoacylation is 1 or above, and False when it is below?

| biopolymerSequence | tgt | className |
| --- | --- | --- |
| AGGCACCUAGGUCAUCGGGUG [Fam2.2 aminoacylation ribozyme variant] | biotinyl-Leu-oxazolone | True |
| CCACACUUCCAUCAAUCGGUC [Fam1B.1 aminoacylation ribozyme variant] | biotinyl-Leu-oxazolone | False |
| AUUAACCUGGUCAUCGAGCGA [Fam2.1 aminoacylation ribozyme variant] | biotinyl-Leu-oxazolone | True |
| CUACUUCAUAAAAUCGGUCUG [Fam1A.1 aminoacylation ribozyme variant] | biotinyl-Leu-oxazolone | False |
| AAUACCCUGGACAUCGAGUGA [Fam2.1 aminoacylation ribozyme variant] | biotinyl-Leu-oxazolone | True |
| AUUGACCUAGGUCAUCUGGUG [Fam2.2 aminoacylation ribozyme variant] | biotinyl-Leu-oxazolone | True |
| AUCACCCUGGUCAUCGUGUGA [Fam2.1 aminoacylation ribozyme variant] | biotinyl-Leu-oxazolone | True |
| GUUACCCUGGGCAUCGAGUGA [Fam2.1 aminoacylation ribozyme variant] | biotinyl-Leu-oxazolone | True |
| AAGUUUGCUAAUGGUCGCGAG [Fam3.1 aminoacylation ribozyme variant] | biotinyl-Leu-oxazolone | True |
| CCUCACUUCGAGCAAUCGGUC [Fam1B.1 aminoacylation ribozyme variant] | biotinyl-Leu-oxazolone | True |
| GAGUUUGCUAAUAGUCACAAG [Fam3.1 aminoacylation ribozyme variant] | biotinyl-Leu-oxazolone | True |
| CUACUUCAUACAAUCGGUCUU [Fam1A.1 aminoacylation ribozyme variant] | biotinyl-Leu-oxazolone | False |
| ACACACUUCCAGCAAUCGGUC [Fam1B.1 aminoacylation ribozyme variant] | biotinyl-Leu-oxazolone | True |
| AUUACACAGGUCAUCGAGUGA [Fam2.1 aminoacylation ribozyme variant] | biotinyl-Leu-oxazolone | True |
| CCACGCUUCAAGCAAACGGUC [Fam1B.1 aminoacylation ribozyme variant] | biotinyl-Leu-oxazolone | False |
| AGUCACCUAGGUCAUCGGGUC [Fam2.2 aminoacylation ribozyme variant] | biotinyl-Leu-oxazolone | True |
| AAUUUUGCUAAUACUCGCAAG [Fam3.1 aminoacylation ribozyme variant] | biotinyl-Leu-oxazolone | True |
| AAGUUUGCUAUUAGUCCCAAG [Fam3.1 aminoacylation ribozyme variant] | biotinyl-Leu-oxazolone | True |

The values you see were collected from the supplement of paper PMC9233669.
